Target: T1, GFP-9S library array, motif 4 ND N98A;D124I (synthetic construct, N98A;D124I)
T1 chain: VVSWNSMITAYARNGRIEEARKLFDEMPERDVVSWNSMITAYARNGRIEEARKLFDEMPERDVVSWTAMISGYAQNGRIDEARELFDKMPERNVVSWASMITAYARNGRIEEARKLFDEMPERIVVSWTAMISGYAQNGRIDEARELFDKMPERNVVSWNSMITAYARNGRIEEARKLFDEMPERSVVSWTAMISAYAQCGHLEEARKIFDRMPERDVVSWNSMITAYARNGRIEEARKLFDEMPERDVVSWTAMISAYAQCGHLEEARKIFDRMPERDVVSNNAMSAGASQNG
Assay: high-throughput RNA pulldown from lysate on Ni-NTA beads; HRP: 50 mM Tris pH 8, 150 mM NaCl, 1 mM beta-mercaptoethanol, 50 ug/ml BSA, 3 ug/ml yeast RNA, 0.5% heparin; ITC and FP: Tris pH 8, 200 mM KCl, 5% glycerol; MST: 50 mM Tris pH 8, 200 mM NaCl, 1 mM DTT, BSA, heparin, 0.05% Tween 20
Details: tags: N-terminal His-eGFP; label: 5' IRDye 800CW
OUTCOME_MEASURE: Kd (nM)
Please reply with the bare figure in nM and do not write the unit itself.

binder="AUUAAACGUGA (ssRNA) [IR-rpoA-A]" outcome_measure=Kd observed_result=203

Lab note: next binder to report on.
The recorded Kd for entry AUUAUACGUGA (ssRNA) [IR-rpoA-U] equals 249
